Provenance of the data: patent US7226992B1

- Target Entity: Bcl-2/iso1 (Homo sapiens, UniProt P10415, DEL35-91/INS34DVEENRTEAPEGTESE/R110G/T96A)
- Construct: His tag (pET28b, thrombin-cleavable) (N, cleaved yes); made in house; host or cells: E. coli BL21(DE3)
- Sequence (P10415 with tags, fused parts or gaps with the stated changes): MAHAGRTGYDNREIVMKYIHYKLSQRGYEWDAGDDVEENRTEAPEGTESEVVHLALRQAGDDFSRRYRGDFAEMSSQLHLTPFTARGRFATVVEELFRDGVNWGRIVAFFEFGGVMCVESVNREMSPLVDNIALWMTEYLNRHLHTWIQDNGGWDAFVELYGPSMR
- Measurement Notes: Competitive fluorescence polarization assay, peptide binding to Bcl-2/iso1
No end group written: not given here.
// classify: if (Kd < 200 nM) satisfied else not satisfied

Strictly below 200 nM: is that where Kd of NLWAAQRYGRELRRMSDEFVDAFKK [SEQ ID NO:26] sits? satisfied

In plain terms, does NLWAAQRYGRELRRMSAEFVDSFKK [SEQ ID NO:34] come in under 200 nM for Kd? not satisfied

Is Kd of ALWAAQRYGRELRRMSDEFVDSFKK [SEQ ID NO:21] strictly below 200 nM? not satisfied

Consider NLWAAQRYGRELRRMSDEFVDSFAK [SEQ ID NO:28] . Does its Kd lie strictly below 200 nM? satisfied

For this sequence, is Kd lower than 200 nM? NAWAAQRYGRELRRMSDEFVDSFKK [SEQ ID NO:22] satisfied

Is Kd of NLWAAQRYARELRRMSDEFVAAFKK [SEQ ID NO:32] strictly below 200 nM? satisfied
